tested on: ATP; assay: switch fluorescence ratio, 500 uM ATP over buffer (Cy3 cluster intensity, sum of 5 cycles each) (fold (ratio)); higher = stronger signal-on switching upon ATP binding; sequences stand for … in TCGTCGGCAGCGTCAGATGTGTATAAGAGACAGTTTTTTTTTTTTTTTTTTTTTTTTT…TC; settings: aptamer strand: ATP DNA aptamer (quencher-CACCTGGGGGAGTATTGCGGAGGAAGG + anchor), 100 nM annealed; ATP concentration: 500 uM;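 also: ATP exposure 15 min at 22 °C before imaging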
Please respond with reported switch fluorescence ratio for every item in the list.

>>> measured_value("GTGATATCGG")
1.05

Batch lookup, switch fluorescence ratio per entry.
1. AATAGTACAA
2. TTGGAGAAA
3. CATGGAATTG
4. TTCTGGATGT
5. GATTTGTAAA
6. TTCAGTCGAG
7. ATAGATCGCA
8. AGGGTATGGT

[1.04, 1.27, 0.989, 0.956, 0.99, 0.979, 1.02, 1.01]

----------
tested on: ATP; test: switch fluorescence ratio, 500 uM ATP over buffer (Cy3 cluster intensity, sum of 5 cycles each) (fold (ratio)); higher = stronger signal-on switching upon ATP binding; sequences stand for … in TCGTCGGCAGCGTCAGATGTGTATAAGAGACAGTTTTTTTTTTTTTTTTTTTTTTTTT…TC; settings: aptamer strand: ATP DNA aptamer (quencher-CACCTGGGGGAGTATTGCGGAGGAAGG + anchor), 100 nM annealed; ATP concentration: 500 uM;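 also: ATP exposure 15 min at 22 °C before imaging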
Lab note: compare switch fluorescence ratio against 1. Equal or greater, write Yes. Smaller, write No.

Field: example entries. Status: answers known.
>>> qualitative_label("TAGCCAGGGG")
"Yes"
>>> qualitative_label("CCTGTGCGGA")
"Yes"
>>> qualitative_label("TGATAGGGCG")
"No"
>>> qualitative_label("TTCCGGGGGA")
"Yes"
>>> qualitative_label("CCAGGTGGCT")
"Yes"
>>> qualitative_label("AGGGGAATTG")
"No"
>>> qualitative_label("CTTTTTGTTG")
"Yes"
>>> qualitative_label("ACGCCCTGGC")
"Yes"

Then this sequence:
Is switch fluorescence ratio for CGTTACGTGT at or above 1?
Yes

----------
tested on: ATP; assay: switch fluorescence ratio, 500 uM ATP over buffer (Cy3 cluster intensity, sum of 5 cycles each) (fold (ratio)); higher = stronger signal-on switching upon ATP binding; sequences stand for … in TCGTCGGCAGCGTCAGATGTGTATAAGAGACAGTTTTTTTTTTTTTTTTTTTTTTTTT…TC; conditions: aptamer strand: ATP DNA aptamer (quencher-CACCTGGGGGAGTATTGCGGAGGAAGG + anchor), 100 nM annealed; ATP concentration: 500 uM;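 also: ATP exposure 15 min at 22 °C before imaging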
Please respond with reported switch fluorescence ratio for every item in the list.
One number for each entry.

Worked examples follow.
>>> measured_value("CATGATAGCG")
0.998
>>> measured_value("TCGGGTCGCC")
1
>>> measured_value("AGAGCTCTTT")
1

Batch lookup, switch fluorescence ratio per entry.
1. GGGTACGTTG
2. CTTATTTTTT
3. GAAATTAAGT
4. TTCTCATTTT

[1.01, 1.01, 1.02, 1.01]

Batch lookup, switch fluorescence ratio per entry.
1. CATCGGATTT
2. TTTGCGAGGG
3. TTATACCAAG
4. CCGTTATCTC
5. AGGTTGGATT
6. TTAATAGGTG
7. TGTTTTTCTA
8. ACTGATCAGA

[0.972, 1.01, 1.03, 2.81, 0.971, 1.14, 1, 0.994]

Batch lookup, switch fluorescence ratio per entry.
1. TAATTCTTAG
2. AGTATTTTTA
3. GATAACCATG
4. CCTCGCGGGA
5. TAGAAGTTGT

[0.989, 1.01, 0.993, 1.8, 1]
